# assay-setup: in n-pentanol, 308.15 K
test-readout: solubility (mole fraction)
The reply should be a number, written without any unit.

Incoming: Name the recorded solubility (mole fraction) of the compound listed here: `O=C(O)CCc1nc(-c2ccccc2)c(-c2ccccc2)o1`
Outgoing: 0.0108

====

# assay-setup: in ethanol, 308.15 K
test-readout: solubility (mole fraction)
The reply should be a number, written without any unit.

Incoming: Name the recorded solubility (mole fraction) of the molecule listed here: `O=C(O)CCc1nc(-c2ccccc2)c(-c2ccccc2)o1`
Outgoing: 0.00894

====

# assay-setup: in ethanol, 323.15 K
test-readout: solubility (mole fraction)

Incoming: Name the recorded solubility (mole fraction) of the compound listed here: `O=C(O)CCc1nc(-c2ccccc2)c(-c2ccccc2)o1`
Outgoing: 0.0177
